tested on: 967376-340-R-J2-PDC multicell spheroid viability; experiment: Anticancer human tumor 967376-340-R-J2-PDC patient-derived colon adenocarcinoma cell line growth inhibition [PI3K]; conditions: second compound 10 µM; first compound 0.0316 µM; hits give low values
Entries and their measured viability, T/C follow.

{"COMPOUND": "CC1(C)CCC(Nc2ncc(C(F)(F)F)c(-c3c[nH]c4c(P(C)(C)=O)c(C#N)ccc34)n2)CN1 (stereo unspecified) + CC(Nc1ncnc2nc[nH]c12)c1cc2cccc(Cl)c2c(=O)n1-c1ccccc1", "MEASUREMENT_UNITS": "%", "viability, T/C": 72.3}
{"COMPOUND": "C#Cc1c(F)ccc2cc(O)cc(-c3ncc4c(N5CC6CCC(C5)N6)nc(OCC56CCCN5CC(F)C6)nc4c3F)c12 (stereo unspecified) + CC(Nc1ncnc2nc[nH]c12)c1cc2cccc(Cl)c2c(=O)n1-c1ccccc1", "MEASUREMENT_UNITS": "%", "viability, T/C": 84.1}
{"COMPOUND": "CC(=O)c1c(C)c2cnc(Nc3ccc(N4CCNCC4)cn3)nc2n(C2CCCC2)c1=O + CC(Nc1ncnc2nc[nH]c12)c1cc2cccc(Cl)c2c(=O)n1-c1ccccc1", "MEASUREMENT_UNITS": "%", "viability, T/C": 87.5}
{"COMPOUND": "CC(C)n1nc(-c2ccc3oc(N)nc3c2)c2c(N)ncnc21 + CC(Nc1ncnc2nc[nH]c12)c1cc2cccc(Cl)c2c(=O)n1-c1ccccc1", "MEASUREMENT_UNITS": "%", "viability, T/C": 73.3}
{"COMPOUND": "CCCS(=O)(=O)Nc1ccc(F)c(C(=O)c2c[nH]c3ncc(-c4ccc(Cl)cc4)cc23)c1F + CC(Nc1ncnc2nc[nH]c12)c1cc2cccc(Cl)c2c(=O)n1-c1ccccc1", "MEASUREMENT_UNITS": "%", "viability, T/C": 84.2}
{"COMPOUND": "Cn1ncnc1[C@H]1c2n[nH]c(=O)c3cc(F)cc(c23)N[C@@H]1c1ccc(F)cc1 + CC(Nc1ncnc2nc[nH]c12)c1cc2cccc(Cl)c2c(=O)n1-c1ccccc1", "MEASUREMENT_UNITS": "%", "viability, T/C": 78}

----------
tested on: 967376-340-R-J2-PDC multicell spheroid viability; assay: Anticancer human tumor 967376-340-R-J2-PDC cell line growth inhibition [PI3K]; details: second compound 10 µM; first compound 1 µM; hits give low values;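 note: luminescence used as surrogate of cell viability; spheroids exposed to agents for 7 days before read-out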
MEASURED_PROPERTY: viability, T/C (%)

{"COMPOUND": "CC(C)NCC(C(=O)N1CCN(c2ncnc3c2C(C)CC3O)CC1)c1ccc(Cl)cc1 (centres undefined) + CC(Nc1ncnc2nc[nH]c12)c1cc2cccc(Cl)c2c(=O)n1-c1ccccc1", "MEASUREMENT": 94.2}
{"COMPOUND": "CC1(C)CCC(CN2CCN(c3ccc(C(=O)NS(=O)(=O)c4ccc(NCC5CCOCC5)c([N+](=O)[O-])c4)c(Oc4cnc5[nH]ccc5c4)c3)CC2)=C(c2ccc(Cl)cc2)C1 + CC(Nc1ncnc2nc[nH]c12)c1cc2cccc(Cl)c2c(=O)n1-c1ccccc1", "MEASUREMENT": 74.7}
{"COMPOUND": "Cn1ncc(Cl)c1-c1cc(C(=O)NC(CN)Cc2cccc(F)c2)sc1Cl (centres undefined) + CC(Nc1ncnc2nc[nH]c12)c1cc2cccc(Cl)c2c(=O)n1-c1ccccc1", "MEASUREMENT": 86.3}
{"COMPOUND": "CC(C)NCC(C(=O)N1CCN(c2ncnc3c2C(C)CC3O)CC1)c1ccc(Cl)cc1 (centres undefined) + Cc1nc(NC(=O)N2CCCC2C(N)=O)sc1-c1ccnc(C(C)(C)C(F)(F)F)c1", "MEASUREMENT": 49.1}
{"COMPOUND": "CNC(=O)c1ccc(N2C(=S)N(c3ccc(C#N)c(C(F)(F)F)c3)C(=O)C2(C)C)cc1F + CC(Nc1ncnc2nc[nH]c12)c1cc2cccc(Cl)c2c(=O)n1-c1ccccc1", "MEASUREMENT": 70.6}
{"COMPOUND": "C=CC(=O)N1CCN(c2nc(=O)n(-c3c(C)ccnc3C(C)C)c3nc(-c4c(O)cccc4F)c(F)cc23)C(C)C1 (centres undefined) + CC(Nc1ncnc2nc[nH]c12)c1cc2cccc(Cl)c2c(=O)n1-c1ccccc1", "MEASUREMENT": 78.7}
{"COMPOUND": "CNC(=O)c1ccc(N2C(=S)N(c3ccc(C#N)c(C(F)(F)F)c3)C(=O)C2(C)C)cc1F + Cc1nc(NC(=O)N2CCCC2C(N)=O)sc1-c1ccnc(C(C)(C)C(F)(F)F)c1", "MEASUREMENT": 57.3}
{"COMPOUND": "C#Cc1c(F)ccc2cc(O)cc(-c3ncc4c(N5CC6CCC(C5)N6)nc(OCC56CCCN5CC(F)C6)nc4c3F)c12 (centres undefined) + CC(Nc1ncnc2nc[nH]c12)c1cc2cccc(Cl)c2c(=O)n1-c1ccccc1", "MEASUREMENT": 61.6}
{"COMPOUND": "CC(Cn1ccc(-c2ccc(C#N)c(Cl)c2)n1)NC(=O)c1cc(C(C)O)[nH]n1 (centres undefined) + Cc1nc(NC(=O)N2CCCC2C(N)=O)sc1-c1ccnc(C(C)(C)C(F)(F)F)c1", "MEASUREMENT": 60.9}
{"COMPOUND": "CC(Cn1ccc(-c2ccc(C#N)c(Cl)c2)n1)NC(=O)c1cc(C(C)O)[nH]n1 (centres undefined) + CC(Nc1ncnc2nc[nH]c12)c1cc2cccc(Cl)c2c(=O)n1-c1ccccc1", "MEASUREMENT": 103}
{"COMPOUND": "Cn1nccc1Nc1nccc(-c2ccn(C(CO)c3ccc(Cl)c(F)c3)c(=O)c2)n1 (centres undefined) + CC(Nc1ncnc2nc[nH]c12)c1cc2cccc(Cl)c2c(=O)n1-c1ccccc1", "MEASUREMENT": 86.7}
{"COMPOUND": "C[C@@H](NC(=O)c1ncnc(N)c1Cl)c1ncc(C(=O)Nc2cc(C(F)(F)F)c(Cl)cn2)s1 + CC(Nc1ncnc2nc[nH]c12)c1cc2cccc(Cl)c2c(=O)n1-c1ccccc1", "MEASUREMENT": 97.1}
{"COMPOUND": "CC1(C)CCC(Nc2ncc(C(F)(F)F)c(-c3c[nH]c4c(P(C)(C)=O)c(C#N)ccc34)n2)CN1 (centres undefined) + CC(Nc1ncnc2nc[nH]c12)c1cc2cccc(Cl)c2c(=O)n1-c1ccccc1", "MEASUREMENT": 63.5}
{"COMPOUND": "C[C@@H](NC(=O)c1ncnc(N)c1Cl)c1ncc(C(=O)Nc2cc(C(F)(F)F)c(Cl)cn2)s1 + Cc1nc(NC(=O)N2CCCC2C(N)=O)sc1-c1ccnc(C(C)(C)C(F)(F)F)c1", "MEASUREMENT": 54}
